// values below are reported pIC50
MEASURED_TARGET: DGKα (Homo sapiens (Human))
Sequence (P23743 other isoform, or with tags, fused parts or gaps): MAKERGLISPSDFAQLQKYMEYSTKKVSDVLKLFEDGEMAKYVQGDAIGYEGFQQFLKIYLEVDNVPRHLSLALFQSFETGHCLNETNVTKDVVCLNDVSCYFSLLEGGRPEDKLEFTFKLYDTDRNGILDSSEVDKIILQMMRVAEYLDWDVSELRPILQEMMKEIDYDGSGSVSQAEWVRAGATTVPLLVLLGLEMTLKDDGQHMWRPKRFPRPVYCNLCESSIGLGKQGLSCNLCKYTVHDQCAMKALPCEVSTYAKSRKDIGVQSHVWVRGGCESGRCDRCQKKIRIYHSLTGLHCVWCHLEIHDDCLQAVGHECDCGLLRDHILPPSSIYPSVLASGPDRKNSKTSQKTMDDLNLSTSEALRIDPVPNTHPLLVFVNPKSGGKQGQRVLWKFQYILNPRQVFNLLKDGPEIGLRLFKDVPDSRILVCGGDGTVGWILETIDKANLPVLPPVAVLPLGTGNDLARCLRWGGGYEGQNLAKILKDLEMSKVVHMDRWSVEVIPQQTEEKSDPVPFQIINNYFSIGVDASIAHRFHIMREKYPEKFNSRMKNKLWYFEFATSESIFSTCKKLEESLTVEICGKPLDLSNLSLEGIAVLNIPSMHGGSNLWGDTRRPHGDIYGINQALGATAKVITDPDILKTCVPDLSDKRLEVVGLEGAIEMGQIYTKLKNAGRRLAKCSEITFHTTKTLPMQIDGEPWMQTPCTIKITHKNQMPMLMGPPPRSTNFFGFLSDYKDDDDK
MEASUREMENT_NOTES: Human DGKα kinase activity inhibition assay (ADP-Glo)
EXPERIMENTAL_PARAMETERS: recombinant full-length human DGKα, 55 μM ATP, 7 μM 1,2-dioleoyl-sn-glycerol, read-out: IC50 values of examples in in vitro human DGKa kinase activity inhibition assays
Lab note — pIC50 values are minus log10 of concentrations in M.

INSERT INTO measurements (chemical_string, measured_target, data_value) VALUES
  ('Cn1c(=O)c(C#N)c(N2CCC(c3nc4ccccc4o3)CC2)c2ccc(Cl)cc21', 'DGKα (Homo sapiens (Human))', 8.70);

Inquiry: Hi! What's the reported pIC50 for `Cn1ccc2c(F)cc(C3CCN(c4c(C#N)c(=O)n(C)c5ccccc45)CC3)cc21` on DGKα (Homo sapiens (Human))?
Reply text: 7.85

Inquiry: Hi! What's the reported pIC50 for `Cc1ccc2oc(C3CCN(c4c(C#N)c(=O)n(C)c5cc([N+](=O)[O-])c(C)cc45)CC3)nc2c1` on DGKα (Homo sapiens (Human))?
Reply text: 6.86

Inquiry: Hi! What's the reported pIC50 for `CCn1c(=O)c(C#N)c(N2CCC(c3nc4ccccc4o3)CC2)c2ccccc21` on DGKα (Homo sapiens (Human))?
Reply text: 7.77

Inquiry: Hi! What's the reported pIC50 for `Cc1cccc(-c2nnc(C3CCN(c4c(C(N)=O)c(=O)n(C)c5ccc(Br)cc45)CC3)o2)c1` on DGKα (Homo sapiens (Human))?
Reply text: 7.57

Inquiry: Hi! What's the reported pIC50 for `Cc1ccc2oc(C3CCN(c4c(C#N)c(=O)n(C)c5ccc(C6CCC6)cc45)CC3)nc2c1` on DGKα (Homo sapiens (Human))?
Reply text: 8.08

Inquiry: Hi! What's the reported pIC50 for `Cc1ccc2oc(C3CCN(c4c(C#N)c(=O)n(C)c5cc(C(F)(F)F)ccc45)CC3)nc2c1` on DGKα (Homo sapiens (Human))?
Reply text: 8.08

Inquiry: Hi! What's the reported pIC50 for `Cn1c(=O)c(C#N)c(N2CCC(c3nc4ccccc4o3)CC2)c2cccc(F)c21` on DGKα (Homo sapiens (Human))?
Reply text: 7.22

Cited source for all entries: patent US11998539B2
